As a worked illustration, we turn to pKi data collected for 5-hydroxytryptamine receptor 2C (Sus scrofa, UniProt K7GSR7).
Keep in mind that pKi stands for -log10 of concentration in molar terms.

Field: example entries. Status: answers known.
>>> print(df.to_string())
                                 smiles_str  result_value
0  Fc1ccc([C@@H]2CCNC[C@H]2COc2ccc3c(c2)OCO3)cc1          5.04
1       COCCCC/C(=N\OCCN)c1ccc(C(F)(F)F)cc1          5.24
2  CN[C@@H]1CC[C@@H](c2ccc(Cl)c(Cl)c2)c2ccccc21          5.64

Lab note: next molecule to report on.
What value of pKi on 5-hydroxytryptamine receptor 2C (Sus scrofa, UniProt K7GSR7) does `CN(C)CCC[C@]1(c2ccc(F)cc2)OCc2cc(C#N)ccc21` have? 5.74

----------
Molecular target: Alpha-1A adrenergic receptor (Homo sapiens)
Sequence (P35348 whole entry): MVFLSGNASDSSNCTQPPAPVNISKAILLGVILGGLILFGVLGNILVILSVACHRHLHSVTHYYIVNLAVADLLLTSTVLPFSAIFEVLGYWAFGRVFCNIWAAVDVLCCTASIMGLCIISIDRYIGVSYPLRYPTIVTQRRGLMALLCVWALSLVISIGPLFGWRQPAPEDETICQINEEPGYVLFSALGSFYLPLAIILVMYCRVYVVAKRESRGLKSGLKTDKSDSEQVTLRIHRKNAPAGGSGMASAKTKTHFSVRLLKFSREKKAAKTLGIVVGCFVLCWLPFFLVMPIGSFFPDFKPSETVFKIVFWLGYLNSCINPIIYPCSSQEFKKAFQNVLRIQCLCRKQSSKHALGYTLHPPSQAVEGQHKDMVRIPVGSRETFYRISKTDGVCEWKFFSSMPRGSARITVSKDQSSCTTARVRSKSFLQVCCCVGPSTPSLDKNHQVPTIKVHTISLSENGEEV
readout: Ki
Respond with a number, then the unit of measure.

Any idea what its Ki is? The compound is `CN[C@@H]1CC[C@@H](c2ccc(Cl)c(Cl)c2)c2ccccc21` 188 nM

----------
biological target: Histamine H1 receptor (Cavia porcellus)
Sequence (P31389 whole entry): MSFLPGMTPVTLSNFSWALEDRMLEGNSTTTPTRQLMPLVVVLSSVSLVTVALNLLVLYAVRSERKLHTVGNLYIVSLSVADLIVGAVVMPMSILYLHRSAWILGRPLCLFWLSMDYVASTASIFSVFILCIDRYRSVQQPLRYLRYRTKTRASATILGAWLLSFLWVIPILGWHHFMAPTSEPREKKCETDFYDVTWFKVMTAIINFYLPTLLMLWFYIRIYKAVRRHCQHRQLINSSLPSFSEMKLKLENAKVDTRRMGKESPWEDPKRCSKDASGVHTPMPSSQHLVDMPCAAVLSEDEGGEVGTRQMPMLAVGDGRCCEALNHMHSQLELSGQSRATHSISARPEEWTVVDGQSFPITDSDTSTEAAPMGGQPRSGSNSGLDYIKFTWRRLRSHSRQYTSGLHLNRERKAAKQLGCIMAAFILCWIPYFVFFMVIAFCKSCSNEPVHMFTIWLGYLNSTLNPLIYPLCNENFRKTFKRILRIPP
readout: Ki (nM)
Your answer is read as nM, so omit the unit and give the number.

What value of Ki on Histamine H1 receptor (Cavia porcellus) does CNCC[C@@H](Oc1ccc(C(F)(F)F)cc1)c1ccccc1 [Fluoxetine-R-(-)] have? 812

What value of Ki on Histamine H1 receptor (Cavia porcellus) does `CN[C@@H]1CC[C@@H](c2ccc(Cl)c(Cl)c2)c2ccccc21` have? 6580

What value of Ki on Histamine H1 receptor (Cavia porcellus) does `CN(C)CCC[C@]1(c2ccc(F)cc2)OCc2cc(C#N)ccc21` have? 181

What value of Ki on Histamine H1 receptor (Cavia porcellus) does CNCC[C@@H](Oc1ccc(C(F)(F)F)cc1)c1ccccc1 [Prozac] have? 1550
